Target: EGFR (d746-750) (Homo sapiens (Human), UniProt P00533, DEL746-750)
Test: Biochemical EGFR inhibition assay, EGFR (d746-750)
Conditions: Caliper mobility shift; 1.0 mM ATP or ATP Km; read-out: Enz EGFR_Exon19-del746-750 IC50
pIC50: −log10 of the molar value.
Observation type: pIC50

>>> df
                                   compound  assay_value
0  Cn1cc(-c2ncnc3cc(C(F)(F)F)c(NC(=O)C45COCC4C5)nc23)c(-c2ccccc2)n1 (centres unmarked) [Example 483]         6.52
1  COc1cc2ncnc(-c3cn(C)nc3-c3ccccc3)c2cc1OC(=O)N1C[C@H](C)OC[C@@H]1C (racemic)         8.47

P = CCc1ccc(-c2cc3c(-c4cn(C)nc4-c4ccccc4)ncnc3cc2OC)c2c[nH]nc12
Q = COc1cc2ncnc(-c3cn(C)nc3-c3ccccc3)c2cc1-c1cccc2c1nc(CO)n2C
R = COc1cc2ncnc(-c3cn(CC(F)F)nc3-c3ccccc3)c2cc1NC(=O)c1ccns1
Reorder: pIC50, max to min. Return the labels ranked in the requested order, please.
R, P, Q
(R: 9.00, P: 8.72, Q: 8.52)

P = COc1cc2ncnc(-c3cn(C)nc3-c3ccccc3)c2cc1N1CCOCC1
Q = CCOc1cc2ncnc(-c3cn(CC)nc3-c3ccccc3)c2cc1CO
R = COc1cc2ncnc(-c3cn(C)nc3-c3ccccc3)c2nc1OC(C)c1cn(C)nn1 (centres unmarked)
Sort entries by pIC50 from minimum to maximum value. Quick reminder: the answer is the labels in the order asked.
P, R, Q
(P: 8.54, R: 8.80, Q: 9.05)

* * *

Target: pEGFR (Tyr1068) in PC-9 cells (Ex19Del) (Homo sapiens (Human), UniProt P00533, DEL746-750)
Sequence (P00533 other isoform, or with tags, fused parts or gaps del 746-750): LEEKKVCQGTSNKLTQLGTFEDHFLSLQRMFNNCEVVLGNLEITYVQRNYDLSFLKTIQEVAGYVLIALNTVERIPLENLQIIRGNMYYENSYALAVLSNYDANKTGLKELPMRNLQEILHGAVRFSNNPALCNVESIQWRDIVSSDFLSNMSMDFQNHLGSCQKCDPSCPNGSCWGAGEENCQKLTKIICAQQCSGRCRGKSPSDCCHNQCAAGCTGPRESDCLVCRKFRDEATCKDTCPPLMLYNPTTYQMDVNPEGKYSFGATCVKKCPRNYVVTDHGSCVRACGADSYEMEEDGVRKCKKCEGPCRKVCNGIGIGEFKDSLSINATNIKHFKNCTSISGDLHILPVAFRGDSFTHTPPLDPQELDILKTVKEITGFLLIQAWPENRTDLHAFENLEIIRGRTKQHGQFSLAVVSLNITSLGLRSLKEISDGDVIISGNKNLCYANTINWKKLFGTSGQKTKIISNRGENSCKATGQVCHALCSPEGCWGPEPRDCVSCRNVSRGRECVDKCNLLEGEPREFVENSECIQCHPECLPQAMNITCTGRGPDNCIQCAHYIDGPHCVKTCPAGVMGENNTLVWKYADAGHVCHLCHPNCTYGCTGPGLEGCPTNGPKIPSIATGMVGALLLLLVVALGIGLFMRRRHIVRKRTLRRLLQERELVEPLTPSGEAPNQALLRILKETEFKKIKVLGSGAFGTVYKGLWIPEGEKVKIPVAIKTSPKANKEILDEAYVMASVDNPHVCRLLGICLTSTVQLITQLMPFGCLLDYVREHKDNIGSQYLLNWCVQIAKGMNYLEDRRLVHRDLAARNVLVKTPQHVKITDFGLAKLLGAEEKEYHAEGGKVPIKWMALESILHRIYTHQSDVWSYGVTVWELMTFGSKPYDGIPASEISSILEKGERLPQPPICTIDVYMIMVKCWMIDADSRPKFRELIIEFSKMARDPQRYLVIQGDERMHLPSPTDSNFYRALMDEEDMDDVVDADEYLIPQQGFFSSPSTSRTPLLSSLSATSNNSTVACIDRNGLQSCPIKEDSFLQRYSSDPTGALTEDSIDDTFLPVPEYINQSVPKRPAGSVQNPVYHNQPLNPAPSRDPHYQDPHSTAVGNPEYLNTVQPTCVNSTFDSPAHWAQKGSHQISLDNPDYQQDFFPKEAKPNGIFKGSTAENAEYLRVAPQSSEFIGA
Assay: PC-9 pEGFR AlphaLISA assay
Assay type: cell-based
Settings: 4 hours incubation, p-EGFR (Tyr1068) AlphaLISA, read-out: Ext pEGFR_PC-9 Ex19Del IC50
Observation type: IC50 (nM)

>>> print(df.to_string())
                                   compound  unit_of_measurement  assay_value
0  COc1cc2ncnc(-c3cn(CC(F)F)nc3-c3ccccc3)c2cc1O[C@@H]1CCN(C)C[C@H]1F                   nM          0.3
1  COc1cc2ncnc(-c3cn(C)nc3-c3ccc(F)cc3)c2nc1NC(=O)[C@]12C[C@H]1CN(C)C2 (single isomer, unassigned)                   nM          2.3
2  COc1cc2ncnc(-c3cn(C)nc3-c3ccccc3)c2cc1OC(=O)N1CCN(C)C(C)(C)C1                   nM          9.7
3  COc1cc2ncnc(-c3cn(C)nc3-c3ccccc3)c2cc1-c1cccc2cn(C)nc12                   nM          4.6
4  COc1cc2ncnc(-c3cn(C)nc3-c3ccccc3)c2cc1NC(=O)c1ccccc1C                   nM          2.5

1 = COc1cc2ncnc(-c3cn(C)nc3-c3ccccc3)c2cc1NC(=O)C12CC(C1)C2
2 = COc1cc2ncnc(-c3cn(C)nc3-c3ccccc3)c2cc1NC(=O)c1scnc1C
3 = COc1cc2ncnc(-c3cn(C)nc3-c3ccccc3)c2nc1O[C@@H](C)c1cscn1 (single isomer, unassigned)
4 = COc1cc2ncnc(-c3cn(CC(F)F)nc3-c3ccccc3)c2cc1OC
5 = COc1cc2ncnc(-c3cn(C)nc3-c3ccccc3)c2cc1NC(=O)C12CC(F)(C1)C2
Arrange items by their IC50 values in increasing order. List each label, following the requested order.
3, 2, 4, 1, 5

1 = COc1cc2ncnc(-c3cn(C4COC4)nc3-c3ccccc3)c2cc1OC(=O)N1CCOC[C@@H]1C
2 = COc1cc2ncnc(-c3cn(C4CC4)nc3-c3ccccc3)c2nc1NC(=O)c1cnn(C(F)(F)F)c1
3 = CCn1cc([C@H](C)Oc2nc3c(-c4cn(C)nc4-c4ccccc4)ncnc3cc2OC)nn1
# desc sort on IC50 across 3 compounds A complete answer lists every label in the requested sequence.
3, 1, 2
(3: 14 nM, 1: 3 nM, 2: 2 nM)

* * *

Target: pEGFR (Tyr1068) in PC-9 cells (Ex19Del) (Homo sapiens (Human), UniProt P00533, DEL746-750)
Test: PC-9 pEGFR AlphaLISA assay
Conditions: 4 hours incubation, p-EGFR (Tyr1068) AlphaLISA, read-out: Ext pEGFR_PC-9 Ex19Del IC50
pIC50: −log10 of the molar value.
Observation type: pIC50

In [3]: df
Out[3]:
                                   molecule                                    target  observation_type  assay_value
0  COc1cc2ncnc(-c3cn(C)nc3-c3ccccc3)c2cc1OC(=O)N1CCOCC12CC2  pEGFR (Tyr1068) in PC-9 cells (Ex19Del) (Homo sapiens (Human), UniProt P00533, DEL746-750)             pIC50         8.60
1  COc1cc2ncnc(-c3cn(C)nc3-c3ccccc3)c2cc1NC(=O)c1cccc(C)n1  pEGFR (Tyr1068) in PC-9 cells (Ex19Del) (Homo sapiens (Human), UniProt P00533, DEL746-750)             pIC50         8.89
2  COc1cc2ncnc(-c3cn(C)nc3-c3ccccc3F)c2cc1NC(=O)[C@]12C[C@H]1CN(C)C2 (single isomer, unassigned)  pEGFR (Tyr1068) in PC-9 cells (Ex19Del) (Homo sapiens (Human), UniProt P00533, DEL746-750)             pIC50         8.42

P = C[C@H](O)c1cc2c(-c3cn(CC(F)F)nc3-c3ccccc3)ncnc2cc1O[C@H]1CCOC1 (single isomer, unassigned)
Q = COc1cc2ncnc(-c3cn(C)nc3-c3c(F)cccc3F)c2nc1NC(=O)[C@@]12C[C@@H]1CN(C)C2 (single isomer, unassigned)
R = CCn1cc(-c2ncnc3cc(OC)c(NC(=O)c4cnn(C(F)(F)F)c4)cc23)c(-c2ccccc2)n1
Sort low-to-high on pIC50, please. Please respond with the labels ordered as the question requires.
Q, P, R
(Q: 8.17, P: 8.47, R: 8.85)

* * *

Molecular target: EGFR L858R (Homo sapiens (Human), UniProt P00533, L858R)
Sequence (P00533 25-1210 L858R): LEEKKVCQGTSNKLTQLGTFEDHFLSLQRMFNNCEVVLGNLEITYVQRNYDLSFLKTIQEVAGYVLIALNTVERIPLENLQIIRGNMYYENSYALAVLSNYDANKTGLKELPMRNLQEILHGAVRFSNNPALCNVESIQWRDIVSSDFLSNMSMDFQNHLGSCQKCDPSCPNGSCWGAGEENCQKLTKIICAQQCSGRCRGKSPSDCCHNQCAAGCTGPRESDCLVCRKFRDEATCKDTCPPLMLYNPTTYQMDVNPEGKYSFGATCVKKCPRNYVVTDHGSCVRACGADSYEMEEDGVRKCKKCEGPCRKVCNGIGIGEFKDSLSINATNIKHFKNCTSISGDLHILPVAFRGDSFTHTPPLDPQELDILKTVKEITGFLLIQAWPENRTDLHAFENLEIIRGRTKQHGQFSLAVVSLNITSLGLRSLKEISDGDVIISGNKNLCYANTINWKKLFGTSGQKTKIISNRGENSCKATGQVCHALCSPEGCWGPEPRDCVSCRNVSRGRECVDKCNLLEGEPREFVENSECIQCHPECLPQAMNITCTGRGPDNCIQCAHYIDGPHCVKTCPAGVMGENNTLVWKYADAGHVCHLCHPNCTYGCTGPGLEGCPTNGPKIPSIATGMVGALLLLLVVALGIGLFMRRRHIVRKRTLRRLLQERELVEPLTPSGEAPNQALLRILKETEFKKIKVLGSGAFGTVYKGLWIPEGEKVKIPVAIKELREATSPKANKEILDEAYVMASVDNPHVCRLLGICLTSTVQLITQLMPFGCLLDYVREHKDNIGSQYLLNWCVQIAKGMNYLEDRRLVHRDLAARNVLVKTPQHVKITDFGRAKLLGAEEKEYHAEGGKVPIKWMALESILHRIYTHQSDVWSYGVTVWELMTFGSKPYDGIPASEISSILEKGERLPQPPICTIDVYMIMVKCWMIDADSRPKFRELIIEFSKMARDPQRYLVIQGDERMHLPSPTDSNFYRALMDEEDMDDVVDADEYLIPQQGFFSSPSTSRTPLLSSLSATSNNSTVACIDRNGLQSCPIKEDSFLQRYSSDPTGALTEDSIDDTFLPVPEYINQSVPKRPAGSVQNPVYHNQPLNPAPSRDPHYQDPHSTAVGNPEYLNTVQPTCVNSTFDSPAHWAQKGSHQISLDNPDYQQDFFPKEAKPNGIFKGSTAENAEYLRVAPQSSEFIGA
Assay: Biochemical EGFR inhibition assay, EGFR L858R
Details: Caliper mobility shift; 1.0 mM ATP or ATP Km; read-out: Enz EGFR_L858R IC50
Observation type: IC50 (nM)

                                   molecule  unit_of_measurement  assay_value
0  COc1cc2ncnc(-c3cn(C)nc3-c3ccccc3)c2cc1C1=CCN(C)C1                   nM          1.6

I = COc1cc2ncnc(-c3cn(C)nc3-c3ccccc3)c2cc1OC(=O)N1C[C@H](C)OC[C@@H]1C (racemic)
II = CCOc1cc2ncnc(-c3cn(C)nc3-c3ccccc3)c2cc1NC(=O)C1CC1
III = COc1cc2ncnc(-c3cn(C)nc3-c3ccccc3)c2cc1NC(=O)[C@H](C)N(C)C (single isomer, unassigned) [Example 237]
Order these by IC50, descending, and give the full ranking. I'd appreciate it if you listed the labels in the requested order.
I, III, II

* * *

Biological target: pEGFR (Tyr1068) in PC-9 cells (Ex19Del) (Homo sapiens (Human), UniProt P00533, DEL746-750)
Assay: PC-9 pEGFR AlphaLISA assay
Conditions: 4 hours incubation, p-EGFR (Tyr1068) AlphaLISA, read-out: Ext pEGFR_PC-9 Ex19Del IC50
pIC50: −log10 of the molar value.
Observation type: pIC50

Look over these answered cases.
>>> print(df.to_string())
                                   compound  assay_value
0  COc1cc2ncnc(-c3cn(C)nc3-c3ccc(F)cc3)c2cc1NC(=O)c1scnc1C [Example 304]         8.92
1  COc1cc2ncnc(-c3cn(C)nc3-c3ccc(F)cc3)c2nc1NC(=O)[C@@]12C[C@@H]1CN(C)C2 (single isomer, unassigned) [Example 410]         8.60

I = COc1cc2ncnc(-c3cn(C)nc3-c3ccccc3)c2cc1NC(=O)c1c(Cl)cccc1Cl [Example 231]
II = COc1cc2ncnc(-c3cn(C)nc3-c3ccccc3)c2cc1NC(=O)c1cn(C(F)(F)F)nc1C [Example 235]
pIC50 comparison. Which is larger, I or II ? # respond with the chosen item's label
II
(II: 8.82, I: 8.62)
